This collection of values is drawn from patent US20220079944A1.

experiment: Brain concentration and brain/plasma ratio in mouse after 10 mg/kg p.o.; assay type: in vivo; conditions: plasma, po, 10 mg/kg, PO 10 mg/kg, 2.00 h, individual animal R3, read-out: Plasma Concentration, R3 + 3n
compounds and their reported concentration at 2 h

[
  {
    "compound": "CCN1CCN(Cc2ccc(Nc3ncc(F)c(-c4ccc5nn(C)c(C(C)C)c5c4)n3)nc2)CC1 [Compound 1]",
    "concentration at 2 h": "748 ng/mL"
  },
  {
    "compound": "CCN1CCN(Cc2ccc(Nc3ncc(F)c(-c4cc(F)c5nc(C)n(C(C)C)c5c4)n3)nc2)CC1 [abemaciclib, reference compound]",
    "concentration at 2 h": "821 ng/mL"
  }
]

----------
Recorded concentration at 24 h for the following molecules
test: Brain concentration and brain/plasma ratio in mouse after 10 mg/kg p.o.; assay type: in vivo; conditions: brain, po, 10 mg/kg, PO 10 mg/kg, 24.0 h, mean, read-out: Brain Concentration, Mean PO

[
  {
    "molecule": "CCN1CCN(Cc2ccc(Nc3ncc(F)c(-c4ccc5nn(C)c(C(C)C)c5c4)n3)nc2)CC1",
    "concentration at 24 h": "11.2 ng/g"
  },
  {
    "molecule": "CCN1CCN(Cc2ccc(Nc3ncc(F)c(-c4cc(F)c5nc(C)n(C(C)C)c5c4)n3)nc2)CC1 [abemaciclib, reference compound]",
    "concentration at 24 h": "10.6 ng/g"
  }
]

----------
experiment: Brain concentration and brain/plasma ratio in mouse after 10 mg/kg p.o.; type: in vivo; settings: brain, po, 10 mg/kg, PO 10 mg/kg, 24.0 h, individual animal R2, read-out: Brain Concentration, R2 + 3n
The entries below come with measured concentration at 24 h values attached.

[
  {
    "molecule": "CCN1CCN(Cc2ccc(Nc3ncc(F)c(-c4cc(F)c5nc(C)n(C(C)C)c5c4)n3)nc2)CC1 [abemaciclib, reference compound]",
    "concentration at 24 h / ng/g": 14.8
  },
  {
    "molecule": "CCN1CCN(Cc2ccc(Nc3ncc(F)c(-c4ccc5nn(C)c(C(C)C)c5c4)n3)nc2)CC1",
    "concentration at 24 h / ng/g": 8.64
  }
]

----------
test: Brain concentration and brain/plasma ratio in mouse after 10 mg/kg p.o.; type: in vivo; settings: brain, po, 10 mg/kg, PO 10 mg/kg, 4.00 h, individual animal R2, read-out: Brain Concentration, R2 + 3n

[
  {
    "molecule": "CCN1CCN(Cc2ccc(Nc3ncc(F)c(-c4ccc5nn(C)c(C(C)C)c5c4)n3)nc2)CC1",
    "concentration at 4 h [ng/g]": 1060
  },
  {
    "molecule": "CCN1CCN(Cc2ccc(Nc3ncc(F)c(-c4cc(F)c5nc(C)n(C(C)C)c5c4)n3)nc2)CC1 [abemaciclib, reference compound]",
    "concentration at 4 h [ng/g]": 370
  }
]

----------
assay: Brain concentration and brain/plasma ratio in mouse after 10 mg/kg p.o.; type: in vivo; details: PO 10 mg/kg, brain AUC0-last / plasma AUC0-last, read-out: AUC0-last Ratio, brain/plasma (B/P) ratio
assayReadout: Kp

[
  {
    "substanceSmiles": "CCN1CCN(Cc2ccc(Nc3ncc(F)c(-c4ccc5nn(C)c(C(C)C)c5c4)n3)nc2)CC1",
    "assayReadout": "Kp",
    "value": 1.43
  }
]

----------
target: P-gp (Homo sapiens, UniProt P08183); construct: expressed in transfected cells; host or cells: MDR1-MDCK (MDCK cells expressing MDR1); assay: P-gp substrate potential using MDR1-MDCK monolayers (bidirectional permeability +/- valspodar); type: in vitro ADME; settings: dog, pH 7.4; MDR1-MDCK, Papp (B-to-A)/Papp (A-to-B), without valspodar
Sequence (P08183 whole entry): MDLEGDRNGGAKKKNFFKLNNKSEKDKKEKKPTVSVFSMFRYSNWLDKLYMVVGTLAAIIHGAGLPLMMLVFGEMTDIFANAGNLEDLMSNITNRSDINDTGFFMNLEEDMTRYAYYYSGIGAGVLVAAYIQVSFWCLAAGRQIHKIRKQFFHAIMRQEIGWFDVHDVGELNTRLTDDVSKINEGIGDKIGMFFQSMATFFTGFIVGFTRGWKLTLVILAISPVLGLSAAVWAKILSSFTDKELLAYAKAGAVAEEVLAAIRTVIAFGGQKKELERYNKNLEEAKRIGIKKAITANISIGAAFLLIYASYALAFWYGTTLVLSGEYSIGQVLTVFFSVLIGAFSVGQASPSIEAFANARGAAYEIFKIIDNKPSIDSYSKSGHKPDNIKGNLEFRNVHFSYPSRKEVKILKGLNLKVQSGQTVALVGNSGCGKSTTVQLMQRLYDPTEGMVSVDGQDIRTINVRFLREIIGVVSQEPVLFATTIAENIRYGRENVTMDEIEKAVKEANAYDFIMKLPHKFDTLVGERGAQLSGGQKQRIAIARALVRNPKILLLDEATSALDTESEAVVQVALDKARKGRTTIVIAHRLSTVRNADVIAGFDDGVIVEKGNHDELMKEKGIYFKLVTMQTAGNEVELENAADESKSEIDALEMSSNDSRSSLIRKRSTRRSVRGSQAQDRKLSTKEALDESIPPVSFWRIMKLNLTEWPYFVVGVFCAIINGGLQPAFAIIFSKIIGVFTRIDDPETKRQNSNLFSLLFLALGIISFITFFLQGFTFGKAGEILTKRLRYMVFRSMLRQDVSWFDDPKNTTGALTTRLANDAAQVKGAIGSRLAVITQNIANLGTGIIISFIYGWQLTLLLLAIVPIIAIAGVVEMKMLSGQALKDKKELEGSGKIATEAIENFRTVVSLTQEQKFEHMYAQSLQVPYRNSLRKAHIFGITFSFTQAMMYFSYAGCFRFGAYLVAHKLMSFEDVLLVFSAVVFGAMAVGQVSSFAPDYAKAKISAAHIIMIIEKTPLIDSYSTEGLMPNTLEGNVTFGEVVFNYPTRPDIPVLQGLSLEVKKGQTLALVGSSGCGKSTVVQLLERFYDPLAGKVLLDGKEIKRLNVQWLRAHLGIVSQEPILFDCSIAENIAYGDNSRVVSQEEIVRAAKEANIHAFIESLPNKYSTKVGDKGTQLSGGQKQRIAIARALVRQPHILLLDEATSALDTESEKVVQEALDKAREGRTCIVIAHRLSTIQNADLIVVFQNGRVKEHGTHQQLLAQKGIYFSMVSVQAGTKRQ
assayReadout: efflux ratio at 120 min, 5 μM

[
  {
    "compound": "CCN1CCN(Cc2ccc(Nc3ncc(F)c(-c4ccc5nn(C)c(C(C)C)c5c4)n3)nc2)CC1 [Compound 1]",
    "assayReadout": "efflux ratio at 120 min, 5 μM",
    "value": 1.5
  }
]

----------
test: Brain concentration and brain/plasma ratio in mouse after 10 mg/kg p.o.; type: in vivo; settings: plasma, po, 10 mg/kg, PO 10 mg/kg, 2.00 h, individual animal R1, read-out: Plasma Concentration, R1 + 3n

[
  {
    "compound": "CCN1CCN(Cc2ccc(Nc3ncc(F)c(-c4cc(F)c5nc(C)n(C(C)C)c5c4)n3)nc2)CC1 [abemaciclib, reference compound]",
    "concentration at 2 h, ng/mL": 633
  },
  {
    "compound": "CCN1CCN(Cc2ccc(Nc3ncc(F)c(-c4ccc5nn(C)c(C(C)C)c5c4)n3)nc2)CC1 [Compound 1]",
    "concentration at 2 h, ng/mL": 833
  }
]

----------
assay: Brain concentration and brain/plasma ratio in mouse after 10 mg/kg p.o.; type: in vivo; conditions: plasma, po, 10 mg/kg, PO 10 mg/kg, 24.0 h, individual animal R3, read-out: Plasma Concentration, R3 + 3n

[
  {
    "compound": "CCN1CCN(Cc2ccc(Nc3ncc(F)c(-c4ccc5nn(C)c(C(C)C)c5c4)n3)nc2)CC1 [Compound 1]",
    "concentration at 24 h, µg/mL": 0.0106
  },
  {
    "compound": "CCN1CCN(Cc2ccc(Nc3ncc(F)c(-c4cc(F)c5nc(C)n(C(C)C)c5c4)n3)nc2)CC1 [abemaciclib, reference compound]",
    "concentration at 24 h, µg/mL": 0.0166
  }
]
